measurement.description: in vivo
condition.details: rat, iv, I.v., male rats (dd strain), fasted 12 hours
readout.kind: LD50 (mg/kg)
# output: bare number, implied unit mg/kg

input: # query: LD50 of entry CCC(NC(C)C)C(O)c1ccc(O)c2c1CCC(=O)N2 (stereo not shown)
output: 81.5

---

measurement.description: in vivo
condition.details: rat, po, male rats (dd strain), fasted 12 hours
readout.kind: LD50 (mg/kg)
# output: bare number, implied unit mg/kg

input: # query: LD50 of entry CCC(NC(C)C)C(O)c1ccc(O)c2c1CCC(=O)N2 (stereo not shown)
output: 830
